Molecular target: HCK (human) (UniProt P08631)
Sequence (P08631 whole entry, looked up): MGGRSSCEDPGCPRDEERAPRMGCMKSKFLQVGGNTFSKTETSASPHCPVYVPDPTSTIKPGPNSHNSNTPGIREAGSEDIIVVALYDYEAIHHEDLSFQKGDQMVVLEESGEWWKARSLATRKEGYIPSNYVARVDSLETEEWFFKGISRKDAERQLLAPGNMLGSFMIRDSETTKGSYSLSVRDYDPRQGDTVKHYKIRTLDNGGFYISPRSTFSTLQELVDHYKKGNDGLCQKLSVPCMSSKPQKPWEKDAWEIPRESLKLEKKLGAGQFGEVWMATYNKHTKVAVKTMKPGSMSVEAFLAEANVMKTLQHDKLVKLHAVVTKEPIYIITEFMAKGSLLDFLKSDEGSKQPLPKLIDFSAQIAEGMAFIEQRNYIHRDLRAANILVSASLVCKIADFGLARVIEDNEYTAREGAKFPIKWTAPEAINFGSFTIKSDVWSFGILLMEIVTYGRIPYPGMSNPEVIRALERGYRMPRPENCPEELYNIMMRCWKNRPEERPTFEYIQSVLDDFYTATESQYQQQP
Test: KINOMEscan competition binding
Conditions: compound 10.0 µM
For each record, check the reported kinase still bound, per cent of control: if it is below 80% write Criterion met, else write Criterion not met.

Record excerpt, results attached:
O=c1cc(N2CCOCC2)oc2c(-c3cccc4c3sc3ccccc34)cccc12	Criterion not met
CCN(CC)CCCCNc1ncc2cc(-c3cc(OC)cc(OC)c3)c(NC(=O)NC(C)(C)C)nc2n1	Criterion not met
COc1cc(C(=O)N2CCC(N3CCN(C)CC3)CC2)ccc1Nc1ncc2c(n1)N(C)c1ccccc1C(=O)N2C	Criterion not met
CNC(=O)c1cc(Oc2ccc(NC(=O)Nc3ccc(Cl)c(C(F)(F)F)c3)cc2)ccn1	Criterion met
NC(=O)Nc1cc(-c2cccc(F)c2)sc1C(=O)N[C@@H]1CCCNC1	Criterion met

Is 80% strictly greater than the compound's reported kinase still bound, per cent of control? compound: COc1cc(N2CCN(C)CC2)ccc1Nc1ncc2c(n1)N(C)c1ccccc1C(=O)N2C
Criterion not met

Is 80% strictly greater than the compound's reported kinase still bound, per cent of control? compound: CCN1CCN(C(=O)Cc2ccc(Nc3ncc(F)c(Nc4ccc(C(=O)Nc5ccccc5Cl)cc4)n3)cc2)CC1
Criterion not met

Given the entry COc1cc2ncn(-c3cc(OCc4ccccc4C(F)(F)F)c(C(N)=O)s3)c2cc1OC , would its reported kinase still bound, per cent of control be below 80%?
Criterion met

State whether 80% exceeds kinase still bound, per cent of control recorded for N#CCNC(=O)c1ccc(-c2ccnc(Nc3ccc(N4CCOCC4)cc3)n2)cc1 .
Criterion not met

###

Molecular target: WEE2 (human) (UniProt P0C1S8)
Sequence (P0C1S8 whole entry, looked up): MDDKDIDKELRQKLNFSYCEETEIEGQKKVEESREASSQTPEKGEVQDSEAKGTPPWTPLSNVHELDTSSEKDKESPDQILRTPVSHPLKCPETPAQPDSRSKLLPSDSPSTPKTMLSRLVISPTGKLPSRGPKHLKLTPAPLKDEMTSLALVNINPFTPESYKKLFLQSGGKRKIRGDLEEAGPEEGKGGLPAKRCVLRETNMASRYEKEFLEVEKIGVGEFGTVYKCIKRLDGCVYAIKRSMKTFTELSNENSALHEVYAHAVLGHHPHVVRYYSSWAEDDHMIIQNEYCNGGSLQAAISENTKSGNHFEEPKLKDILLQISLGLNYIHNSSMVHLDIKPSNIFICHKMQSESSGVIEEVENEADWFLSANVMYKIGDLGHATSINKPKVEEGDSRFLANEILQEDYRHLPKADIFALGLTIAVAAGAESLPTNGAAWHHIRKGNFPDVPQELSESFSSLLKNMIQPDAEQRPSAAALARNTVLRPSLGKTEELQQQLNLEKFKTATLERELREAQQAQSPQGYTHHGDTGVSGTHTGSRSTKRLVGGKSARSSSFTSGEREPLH
Assay: KINOMEscan competition binding
Details: compound 10.0 µM
# reported kinase still bound, per cent of control; entries follow
Report only the number, with the unit % understood.

Guide cases for kinase still bound, per cent of control, answers given:
COCC(=O)NC/C=C/c1ccc2ncnc(Nc3ccc(Oc4ccc(C)nc4)c(C)c3)c2c1	81
C=CC(=O)Nc1ccc(CN(C(=O)Nc2c(Cl)c(OC)cc(OC)c2Cl)c2cc(Nc3ccc(N4CCN(C)CC4)cc3)ncn2)cc1	100
CS(=O)(=O)N1CCN(Cc2cc3nc(-c4cccc5[nH]ncc45)nc(N4CCOCC4)c3s2)CC1	100

Fill blank: measured kinase still bound, per cent of control of the compound COc1cc2ncnc(-n3nc(-c4ccccn4)nc3N)c2cc1OC is ____.
100

Given COc1cc(N2CCN(C)CC2)ccc1Nc1ncc2c(n1)N(C)c1ccccc1C(=O)N2C , state its recorded kinase still bound, per cent of control.
100

Please look up its kinase still bound, per cent of control: CCN(CC)CCCCNc1ncc2c(n1)N(C)C(=O)N(c1c(Cl)c(OC)cc(OC)c1Cl)C2
100

###

Molecular target: BMPR1B (human)
Test: KINOMEscan competition binding
Conditions: compound 10.0 µM
Labelling: kinase still bound, per cent of control reported below 30% becomes Criterion met; at or above becomes Criterion not met.

CCN(CC)CCCCNc1ncc2cc(-c3cc(OC)cc(OC)c3)c(NC(=O)NC(C)(C)C)nc2n1	Criterion not met

Below: the item to evaluate.
Consider COc1cc2ncnc(-n3nc(-c4ccccn4)nc3N)c2cc1OC . Does its kinase still bound, per cent of control lie strictly below 30%?
Criterion met

###

Target: RIPK4 (human) (UniProt P57078)
Sequence (P57078 whole entry, looked up): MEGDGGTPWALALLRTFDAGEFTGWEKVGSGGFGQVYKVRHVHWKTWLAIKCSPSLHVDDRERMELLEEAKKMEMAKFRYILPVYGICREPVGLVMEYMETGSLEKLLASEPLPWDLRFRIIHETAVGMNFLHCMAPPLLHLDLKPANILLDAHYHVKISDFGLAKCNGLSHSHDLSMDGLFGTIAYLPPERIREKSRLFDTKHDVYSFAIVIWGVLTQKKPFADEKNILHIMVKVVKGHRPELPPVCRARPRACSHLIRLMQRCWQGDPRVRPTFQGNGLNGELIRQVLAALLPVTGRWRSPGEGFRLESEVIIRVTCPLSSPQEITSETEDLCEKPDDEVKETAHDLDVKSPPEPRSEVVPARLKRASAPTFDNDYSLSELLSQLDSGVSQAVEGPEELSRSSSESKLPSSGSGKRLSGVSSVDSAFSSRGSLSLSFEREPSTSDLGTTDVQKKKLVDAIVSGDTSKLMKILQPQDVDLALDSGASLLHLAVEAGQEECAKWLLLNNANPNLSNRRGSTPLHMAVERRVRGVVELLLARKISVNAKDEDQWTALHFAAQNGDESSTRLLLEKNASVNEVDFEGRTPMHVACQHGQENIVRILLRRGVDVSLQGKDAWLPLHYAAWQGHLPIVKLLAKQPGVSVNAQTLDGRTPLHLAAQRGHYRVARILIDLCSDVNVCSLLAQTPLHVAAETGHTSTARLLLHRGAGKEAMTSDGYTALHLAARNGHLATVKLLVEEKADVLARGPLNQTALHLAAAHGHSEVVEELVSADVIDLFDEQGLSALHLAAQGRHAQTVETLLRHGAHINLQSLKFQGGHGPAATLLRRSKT
Experiment: KINOMEscan competition binding
Details: compound 10.0 µM
reported.property: kinase still bound, per cent of control (%)
Number in %, nothing else.

CNC(=O)c1ccc(Nc2cc(Nc3ccccc3S(=O)(=O)C(C)C)c3cc[nH]c3n2)nc1	100
C=CC(=O)Nc1ccc(CN(C(=O)Nc2c(Cl)c(OC)cc(OC)c2Cl)c2cc(Nc3ccc(N4CCN(C)CC4)cc3)ncn2)cc1	100

GET /values?readout=kinase still bound, per cent of control&item= C[C@@H](Oc1cc(-c2cnn(C3CCNCC3)c2)cnc1N)c1c(Cl)ccc(F)c1Cl
8.2
